Data origin: patent US7842324B2

Biological target: hT1R2/hT1R3 sweet receptor expressed in HEK293 cell line (Homo sapiens, UniProt Q7RTX0+Q8TE23)
Construct: expressed in transfected cells; host or cells: HEK293 derivative stably expressing Gα15 and hT1R2/hT1R3, clone S-9
Sequence (Q8TE23 20-839): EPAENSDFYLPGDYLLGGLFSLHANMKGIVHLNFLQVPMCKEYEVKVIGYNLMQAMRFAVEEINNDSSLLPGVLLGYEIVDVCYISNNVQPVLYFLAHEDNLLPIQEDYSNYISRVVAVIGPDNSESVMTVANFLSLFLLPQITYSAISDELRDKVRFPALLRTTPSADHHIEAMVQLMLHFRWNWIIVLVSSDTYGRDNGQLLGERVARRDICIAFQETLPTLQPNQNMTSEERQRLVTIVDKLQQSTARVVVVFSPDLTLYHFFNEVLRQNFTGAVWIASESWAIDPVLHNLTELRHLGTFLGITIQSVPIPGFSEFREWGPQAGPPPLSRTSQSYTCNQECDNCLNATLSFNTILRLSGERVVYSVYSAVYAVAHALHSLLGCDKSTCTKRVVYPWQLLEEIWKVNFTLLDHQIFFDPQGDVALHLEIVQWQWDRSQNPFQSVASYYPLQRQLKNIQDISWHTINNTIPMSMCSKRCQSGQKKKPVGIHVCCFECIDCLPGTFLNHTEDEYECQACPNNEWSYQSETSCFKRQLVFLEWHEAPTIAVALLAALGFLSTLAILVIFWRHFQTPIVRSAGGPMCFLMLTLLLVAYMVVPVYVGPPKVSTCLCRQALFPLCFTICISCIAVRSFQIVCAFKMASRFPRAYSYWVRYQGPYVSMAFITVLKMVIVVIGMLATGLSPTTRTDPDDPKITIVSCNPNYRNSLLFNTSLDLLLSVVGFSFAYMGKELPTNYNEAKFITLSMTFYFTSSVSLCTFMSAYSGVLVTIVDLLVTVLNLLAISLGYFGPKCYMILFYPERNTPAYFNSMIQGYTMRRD
Sequence (Q7RTX0 21-852): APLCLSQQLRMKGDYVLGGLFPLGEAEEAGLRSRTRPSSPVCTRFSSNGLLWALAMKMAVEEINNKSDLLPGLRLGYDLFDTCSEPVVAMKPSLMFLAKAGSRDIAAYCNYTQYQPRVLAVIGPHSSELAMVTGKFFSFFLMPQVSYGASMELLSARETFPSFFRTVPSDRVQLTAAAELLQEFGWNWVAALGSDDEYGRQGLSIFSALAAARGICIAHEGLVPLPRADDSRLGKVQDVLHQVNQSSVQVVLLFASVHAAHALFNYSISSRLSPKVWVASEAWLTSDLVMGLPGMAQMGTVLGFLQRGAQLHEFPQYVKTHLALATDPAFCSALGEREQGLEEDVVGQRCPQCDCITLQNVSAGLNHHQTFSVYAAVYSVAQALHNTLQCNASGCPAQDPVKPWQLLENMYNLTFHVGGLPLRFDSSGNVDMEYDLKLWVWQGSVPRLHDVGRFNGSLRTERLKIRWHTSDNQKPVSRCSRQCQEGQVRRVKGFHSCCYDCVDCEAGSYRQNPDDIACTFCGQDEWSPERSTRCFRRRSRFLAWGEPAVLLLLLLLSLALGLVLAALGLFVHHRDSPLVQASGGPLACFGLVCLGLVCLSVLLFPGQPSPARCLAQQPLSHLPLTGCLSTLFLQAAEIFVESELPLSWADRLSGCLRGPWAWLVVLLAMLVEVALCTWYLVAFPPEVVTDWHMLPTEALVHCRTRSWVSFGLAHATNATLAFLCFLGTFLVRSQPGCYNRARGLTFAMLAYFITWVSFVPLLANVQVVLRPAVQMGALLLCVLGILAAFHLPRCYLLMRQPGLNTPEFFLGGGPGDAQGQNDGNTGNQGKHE
Test: In vitro hT1R2/hT1R3-HEK293 taste receptor activation assay (FLIPR)
Format: cell-based
Conditions: read-out: EC50 for activation of a hT1R2/hT1R3 sweet receptor expressed in HEK293 cell line
Entries and their log10(EC50) values follow.
Attribute Measured: log10(EC50) (log10 of the value in nM)

| Compound | Attribute Measured | Measured Number |
| --- | --- | --- |
| Cc1ccccc1-c1ccc(C(C)(C)C(=O)NCC(C)C)cc1 | log10(EC50) | 3.28 |
| CC(C)[C@@H](C)NC(=O)C(C)(C)c1ccc(-c2cncc(C#N)c2)cc1 | log10(EC50) | 2.15 |
| CC(C)(C(=O)NCC(O)c1ccco1)c1ccc(-c2cncc(C#N)c2)cc1 (stereo not drawn) | log10(EC50) | 3.08 |
| CC(C)[C@@H](C)NC(=O)C(C)(C)c1ccc(-c2cncnc2)cc1 | log10(EC50) | 2.81 |
| CC(C)CNC(=O)C(C)(C)c1ccc(-c2ccccc2N)cc1 | log10(EC50) | 3.34 |
| CCC(CC)NC(=O)C(C)(C)c1ccc(-c2cncnc2)cc1 | log10(EC50) | 2.58 |
| CC(C)CNC(=O)C(C)(C)c1ccc(-c2cncc(C#N)c2)cc1 | log10(EC50) | 2.18 |
| CC(C)CNC(=O)C(C)(C)c1ccc(-c2ccccc2C#N)cc1 | log10(EC50) | 3.28 |
| CC(C)CNC(=O)C(C)(C)c1ccc(-c2cncc(C#N)n2)cc1 | log10(EC50) | 1.30 |
